- experimental-target: TF/FVII/FX complex (FVII-induced FX activation) (Homo sapiens, UniProt P13726)
- Sequence (P13726 33-295, one chain of several): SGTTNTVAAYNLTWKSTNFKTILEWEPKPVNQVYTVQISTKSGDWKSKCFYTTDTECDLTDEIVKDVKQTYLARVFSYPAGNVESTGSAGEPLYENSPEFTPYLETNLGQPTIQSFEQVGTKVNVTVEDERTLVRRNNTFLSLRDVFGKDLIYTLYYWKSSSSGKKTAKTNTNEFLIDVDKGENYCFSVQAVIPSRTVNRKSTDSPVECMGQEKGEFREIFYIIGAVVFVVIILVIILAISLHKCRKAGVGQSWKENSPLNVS
- test-method-notes: two-stage chromogenic assay: inhibition of FVII-induced FX activation by synthetic peptides
- Assay type: biochemical
- test-settings: FX activation assay system; read-out: Ki(app)
pKi: −log10 of the molar value. Non-standard residues stand in square brackets, D forms with d. No end group written: not given here. Abu = CC[C@H](N)C(=O)O
readout-type: pKi

*Q* // query pKi value for entry ETHKDDQLI[Abu]VNENGG[Abu]EQY[Abu]SDHTGTKRS[Abu]R[Abu]HEGYSLLADGVS[Abu]T [Example 1]
*A* ~5.22

----------
- experimental-target: TF/FVII/FX complex (FVII-induced FX activation) (Homo sapiens)
- test-method-notes: two-stage chromogenic assay: inhibition of FVII-induced FX activation by synthetic peptides
- test-settings: TF, FX and FVII; FX amidolysis of chromogenic substrate; read-out: IC50, concentration of peptide required to inhibit the rate of FX activation by 50%
Positions of bridges follow the written chain, without caps; N, C: chain ends. Residues, ends and D or L forms follow the SMILES beside them.
# IC50 per entry

Take a look at these entries with their results.
- molecule: "CC[C@H](C)[C@H](NC(=O)[C@H](Cc1c[nH]c2ccccc12)NC(C)=O)C(=O)N[C@@H](CO)C(=O)N[C@@H](Cc1ccc(O)cc1)C(=O)N[C@@H](CO)C(=O)N[C@@H](CC(=O)O)C(=O)NCC(=O)N[C@@H](CC(=O)O)C(N)=O [Asp^48 -NH2] (Ac-WISYSDGD-NH2)"
  endpoint-value: "0.29 mM"
- molecule: "CC(=O)N[C@@H](CO)C(=O)N[C@@H](CC(=O)O)C(=O)N[C@@H](Cc1c[nH]cn1)C(=O)N[C@H](C(=O)NCC(=O)N[C@H](C(=O)N[C@@H](CCCCN)C(=O)N[C@@H](CCCNC(=N)N)C(=O)N[C@@H](CO)C(N)=O)[C@@H](C)O)[C@@H](C)O [Ser^111 -NH2] (Ac-SDHTGTKRS-NH2)"
  endpoint-value: "> 1 mM"
- molecule: "CC[C@H](C)[C@H](NC(=O)[C@H](CC(C)C)NC(=O)[C@H](CC(N)=O)NC(=O)[C@H](CCCNC(=N)N)NC(=O)[C@H](Cc1c[nH]c2ccccc12)NC(=O)[C@H](CC(N)=O)NC(=O)[C@H](CCCCN)NC(=O)[C@@H](NC(=O)[C@H](CCCCN)NC(=O)[C@H](CC(=O)O)NC(C)=O)[C@@H](C)CC)C(=O)N[C@@H](C)C(N)=O [Ala^206 -NH2] (Ac-DKIKNWRNLIA-NH2)"
  endpoint-value: "> 1 mM"

Okay, now this molecule:
*Q* Could you tell me which IC50 is on file for CC(C)C[C@@H]1NC(=O)[C@H](CC(C)C)NC(=O)[C@H](CO)NC(=O)[C@H](Cc2ccc(O)cc2)NC(=O)CNC(=O)[C@H](CCC(=O)O)NC(=O)[C@H](Cc2c[nH]cn2)NC(=O)[C@@H](N)CSSC[C@@H](C(=O)O)NC(=O)[C@H](CO)NC(=O)[C@H](C(C)C)NC(=O)CNC(=O)[C@H](CC(=O)O)NC(=O)[C@H](C)NC1=O [Cys^127 -OH]-[H-Cys^114. . .] (H-CHEGYSLLADGVSC-OH; disulfide 1-14) ?
*A* > 1 mM
